System: ACHN renal
Test: NCI tumour cell line growth inhibition, 48 h; in the data active = GI50 below about 0.43 µM; inactive = the rest
API: response.call in 1 (yes) for active, 0 (no) for inactive

CC(=O)OC(C)C(OC(C)=O)C(OC(C)=O)C(/C=C/C1CC=CC(=O)O1)OC(C)=O (stereo unspecified)    0 (no)
C[C@@H]1COCCN1c1cc(-c2ccnn2C)c2ccnc(-c3ccn[nH]3)c2n1    1 (yes)
Nc1cc2cccc[n+]2c2cccc(Cl)c12    0 (no)
Nc1n[nH]c2ccc([C@@H]3Nc4cc5[nH]ncc5cc4[C@H]4C5CCC(C5)[C@@H]34)cc12 (stereo partly specified)    0 (no)
COc1ccc2c(c1)/C(=C\c1c[nH]c3ccc(OC)cc13)C(=O)N2    0 (no)

Qu. Please indicate how the test categorized N/C(=N\c1nc2ccccc2s1)NC(=NC1CCCCC1)NC1CCCCC1 .
Ans. 0 (no)
